- testName: Biotransformation in homogenised inflamed tissue at pH 5.5 (LC/MS, mean residence time)
- assayContext: incubation of BE 1-31 (115 µM) in rat inflamed tissue homogenate, MES pH 5.5, 37°C, 120 min; AUMC/AUC of LC/MS peak intensity
Where no end group is shown, it is not given here.
Provide the reported MRT of each item.
Lab note: write the figure by itself, no unit.

Enquiry: Return reported MRT; argument: YGGFMTSEKSQTP [BE 1–13]
Return: 44

Enquiry: Return reported MRT; argument: BE 1-15: beta-endorphin N-terminal fragment, residues 1-15 (YGGFMTSEKSQTPLV; Beta-endorphin; UniProt P01189 237-251, looked up, fragment)
Return: 12

Enquiry: Return reported MRT; argument: BE 6-16: beta-endorphin fragment, residues 6-16 (TSEKSQTPLVT; Beta-endorphin; UniProt P01189 242-252, looked up, fragment)
Return: 22.4

Enquiry: Return reported MRT; argument: BE 15-24: beta-endorphin fragment, residues 15-24 (VTLFKNAIIK; Beta-endorphin; UniProt P01189 251-260, looked up, fragment)
Return: 25.2

Enquiry: Return reported MRT; argument: BE 2-11: des-tyrosine beta-endorphin fragment, residues 2-11 (GGFMTSEKSQ; Beta-endorphin; UniProt P01189 238-247, looked up, fragment)
Return: 37
